- System: K. pneumoniae CI 138-16357-20362, PmxR
- Method: microbe, parasite or virus in culture
- Assay type: cell-based, Klebsiella pneumoniae
- Settings: carbapenem & polymyxin resistant clinical isolate; MHB, 5 × 10^5 CFU/mL, 18 h at 37 °C
Bridge positions count the residues as written; N and C are the ends. Square brackets hold non-standard residues; d marks the D form. Peptide text beside a SMILES is read from it. * marks the point of attachment. Phe(4-NH2) = Nc1ccc(C[C@H](N)C(=O)O)cc1; hSer = N[C@@H](CCO)C(=O)O; Octanoyl = CCCCCCCC(=O)*; Dab = NCC[C@H](N)C(=O)O
Outcome Measure: MIC K. pneumoniae CI 138-16357-20362, PmxR

Ask | # get_value(readout='MIC K. pneumoniae CI 138-16357-20362, PmxR', item= CCCCCCCC(=O)N[C@@H](CCN)C(=O)N[C@H](C(=O)N[C@@H](CCN)C(=O)N[C@H]1CCNC(=O)[C@H]([C@@H](C)O)NC(=O)[C@H](CCN)NC(=O)[C@H](CCN)NC(=O)[C@H](CC(C)C)NC(=O)[C@@H](Cc2ccccc2)NC(=O)[C@H](Cc2ccc(N)cc2)NC1=O)[C@@H](C)O [Compound 34] (Octanoyl-[Dab]T[Dab][Dab][Phe(4-NH2)][dF]L[Dab][Dab]T; lactam 4-C) )
Reply | >32 µg/mL

Ask | # get_value(readout='MIC K. pneumoniae CI 138-16357-20362, PmxR', item= CCCCCCCC(=O)N[C@@H](CCN)C(=O)N[C@H](C(=O)N[C@@H](CCN)C(=O)N[C@H]1CCNC(=O)[C@H]([C@@H](C)O)NC(=O)[C@H](CCN)NC(=O)[C@H](CCO)NC(=O)[C@H](CC(C)C)NC(=O)[C@@H](Cc2ccccc2)NC(=O)[C@H](CCN)NC1=O)[C@@H](C)O [Compound 24] (Octanoyl-[Dab]T[Dab][Dab][Dab][dF]L[hSer][Dab]T; lactam 4-C) )
Reply | >32 µg/mL

Ask | # get_value(readout='MIC K. pneumoniae CI 138-16357-20362, PmxR', item= CCCCCCCC(=O)N[C@@H](CCN)C(=O)N[C@H](C(=O)N[C@@H](CCN)C(=O)N[C@H]1CCNC(=O)[C@H]([C@@H](C)O)NC(=O)[C@H](CCN)NC(=O)[C@H](CCN)NC(=O)[C@H](CC(C)C)NC(=O)[C@@H](Cc2ccccc2)NC(=O)[C@H](CCNC(=O)[C@@H](N)CCCNC(=N)N)NC1=O)[C@@H](C)O [Compound 31] (Octanoyl-[Dab]T[Dab][Dab][Dab](Arg)[dF]L[Dab][Dab]T; lactam 4-C) )
Reply | >32 µg/mL
